ASSAY_TARGET: urokinase enzyme Abbokinase (Homo sapiens)
Construct: purchased Abbott Laboratories, Abbott Park, Ill
PROTOCOL_TEXT: Determination of urokinase inhibition (Abbokinase, chromogenic substrate S-2444)
Assay type: biochemical
CONDITION_LABEL: IC50, Inhibitory potency against urokinase; substrate S-2444 at 200 μM, enzyme 2-3 nM, pH 7.4, 405 nm
QUANTITY_MEASURED: IC50 (nM)

INSERT INTO measurements (compound, measurement_qualifier, reported_result) VALUES
  ('COC(=O)Nc1cc(C(=O)Nc2ccc(CN)cc2)cc2ccc(C(N)=NO)cc12 [Example 170]', '=', 695),
  ('[H]/N=C(/N)c1ccc2cccc(C=Cc3ccc4c(c3)OCO4)c2c1 [Example 61]', '=', 730),
  ('N=C(N)c1ccc2cc(-c3cccc(C=O)c3)ccc2c1 [Example 111]', '=', 4170),
  ('CCOC(=O)NC(=N)c1ccc2cc(C3CC3c3ccccc3)ccc2c1 (centres unmarked) [Example 216]', '>', 30000),
  ('N=C(N)c1ccc2cc(C#CCc3ccccc3)ccc2c1 [Example 33]', '=', 2400),
  ('COc1ccc2ccc(C(=N)N)cc2c1Nc1ncccn1 [Example 106]', '=', 760),
  ('[H]/N=C(/N)c1ccc2cc(C=Cc3ccco3)ccc2c1 [Example 81]', '=', 3210),
  ('N=C(N)c1ccc2cc(C#Cc3ccc(N)cc3)ccc2c1 [Example 121]', '=', 890),
  ('COc1ccc2ccc(C(=N)N)cc2c1-c1cn[nH]c1 [Example 53]', '=', 2960),
  ('COc1cc2ccc(C(=N)N)cc2cc1OC [Example 3]', '=', 36000),
  ('CCCOc1ccc2ccc(C(=N)N)cc2c1I [Example 43]', '=', 2200),
  ('COc1ccc2ccc(C(=N)N)cc2c1I [Example 54]', '=', 2700),
  ('COc1ccc(C#Cc2ccc3cc(C(=N)N)ccc3c2)cc1CCN [Example 125]', '=', 230),
  ('[H]/N=C(/N)c1ccc2cc(C=CSc3ccccc3)ccc2c1 [Example 80]', '=', 1930),
  ('N=C(NO)c1ccc2cccc(Nc3ncccn3)c2c1 [Example 177]', '=', 14900),
  ('N=C(N)c1ccc2cc(C3CC3c3ccc(CO)cc3)ccc2c1 (centres unmarked) [Example 215]', '=', 1100),
  ('COc1ccc2ccc(C(=N)N)cc2c1Nc1cnccn1 [Example 150]', '=', 160),
  ('N=C(N)c1ccc2cc(C#Cc3ccc(CO)cc3)ccc2c1 [Example 126]', '=', 870),
  ('[H]/N=C(/N)c1ccc2cc(C=Cc3ccc(CN)cc3)ccc2c1 [Example 98]', '=', 240),
  ('N=C(N)c1ccc2cc(NC(=O)C3CCC(CN)CC3)ccc2c1 (centres unmarked) [Example 139]', '=', 2640),
  ('COc1ccc2ccc(C(=N)N)cc2c1NCc1ccccc1 [Example 101]', '=', 800),
  ('CC(=O)CCc1ccc2cc(C(=N)N)ccc2c1 [Example 46]', '=', 2400),
  ('COc1ccc2ccc(C(=N)N)cc2c1Sc1ccccc1 [Example 149]', '=', 3800),
  ('N=C(N)c1ccc2ccc(OCCN3CCOCC3)cc2c1 [Example 206]', '=', 5730),
  ('COc1ccc(Nc2c(OC)ccc3ccc(C(=N)N)cc23)cc1 [Example 103]', '=', 570),
  ('COc1ccc2ccc(C(=N)N)cc2c1C1=CC(=O)CC1 [Example 131]', '=', 4180),
  ('NC(=NO)c1ccc2cc(C(=O)Nc3ccccc3)ccc2c1 [Example 171]', '>', 30000),
  ('N=C(N)c1ccc2cc(Oc3ccccc3C=O)ccc2c1 [Example 49]', '=', 3300),
  ('N=C(N)c1ccc2cccc(Nc3ccccn3)c2c1 [Example 174]', '=', 170),
  ('COc1ccc(CCCOc2c(OC)ccc3ccc(C(=N)N)cc23)cc1OC [Example 24]', '=', 4900),
  ('CSCc1cc(-c2cc(C(=O)Nc3ccccc3)cc3ccc(C(=N)N)cc23)co1 [Example 229]', '=', 117),
  ('COc1cc(OCc2ccccc2)c2cc(C(=N)N)ccc2c1 [Example 38]', '=', 6350),
  ('N=C(N)c1ccc2ccc(OCCO)c(I)c2c1 [Example 29]', '=', 2500),
  ('N=C(N)c1ccc2cc(-c3ccccc3C=O)ccc2c1 [Example 50]', '=', 6130),
  ('N=C(N)c1ccc2ccc(OCc3ccccc3)c(I)c2c1 [Example 5]', '=', 2500),
  ('COC(=O)c1ccc(COc2ccc3ccc(C(N)=NO)cc3c2)cc1 [Example 182]', '>', 30000),
  ('COc1ccc2ccc(C(=N)N)cc2c1Nc1ncccn1 [Example 91]', '=', 50),
  ('N=C(N)c1ccc2cc(-c3ccccc3CO)ccc2c1 [Example 51]', '=', 4700),
  ('COc1cccc(-c2ccc3cc(C(=N)N)ccc3c2)c1 [Example 47]', '=', 4800),
  ('COc1cc2ccc(C(=N)N)cc2c(OC)c1OC [Example 2]', '=', 9800),
  ('N=C(N)c1ccc2cc(OCCc3ccc(N)cc3)ccc2c1 [Example 89]', '=', 6500);
